Source of measurements: patent US11225469B2

Below: a set of entries, each annotated with reported IC50.
target: PHGDH (Homo sapiens (Human), UniProt O43175); assay: PHGDH inhibition, coupled assay with PSAT1/PSPH and diaphorase/resazurin readout; conditions: Table E9; mixture with PSAT1, PSPH; diaphorase/resazurin reporter
Sequence (O43175 whole entry): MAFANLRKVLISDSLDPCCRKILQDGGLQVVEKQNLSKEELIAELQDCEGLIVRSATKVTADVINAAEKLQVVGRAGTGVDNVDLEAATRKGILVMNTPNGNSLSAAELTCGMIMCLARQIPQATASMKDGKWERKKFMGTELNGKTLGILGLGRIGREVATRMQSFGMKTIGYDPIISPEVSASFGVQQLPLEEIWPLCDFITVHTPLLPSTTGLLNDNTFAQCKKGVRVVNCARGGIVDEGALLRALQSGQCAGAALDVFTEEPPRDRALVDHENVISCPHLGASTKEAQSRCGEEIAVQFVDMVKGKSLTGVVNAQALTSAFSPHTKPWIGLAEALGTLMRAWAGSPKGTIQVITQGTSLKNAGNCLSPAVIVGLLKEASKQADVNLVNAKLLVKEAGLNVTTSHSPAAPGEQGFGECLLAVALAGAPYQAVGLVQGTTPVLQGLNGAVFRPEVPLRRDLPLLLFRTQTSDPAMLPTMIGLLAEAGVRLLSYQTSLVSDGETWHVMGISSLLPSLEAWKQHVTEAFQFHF

Consider the worked cases shown below.
What does the record list as IC50 for Cc1cc(C)nc(NC(=S)N2CCN(c3ccc(Cl)cc3Cl)CC2)c1 ?
5 to 10 µM

What does the record list as IC50 for FC(F)(F)c1cccc(N2CCN(C(=S)Nc3cnccn3)CC2)c1 ?
≥ 20 µM

What does the record list as IC50 for Cc1ccnc(NC(=S)N2CCN(c3cc(C(F)(F)F)cc(C(F)(F)F)c3)CC2)c1 ?
5 to 10 µM

What does the record list as IC50 for Cc1cc(C)nc(NC(=S)N2CC3CN(c4ncc(C(F)(F)F)cc4Cl)CC3C2)c1 (centres unmarked) ?
10 to 20 µM

***
What does the record list as IC50 for O=C(Nc1cc2ccccc2cn1)N1CCN(c2cccc(C(F)(F)F)c2)CC1 ?
≥ 20 µM

What does the record list as IC50 for Cc1cc(C)nc(NC(=S)N2CCN(c3cc(C(F)(F)F)nc4ccccc34)CC2)c1 ?
< 5 µM

What does the record list as IC50 for Cc1cc(C)nc(NC(=S)N2CCN(c3cc(Cl)cc(C(F)(F)F)c3)CC2)c1 ?
10 to 20 µM

What does the record list as IC50 for COc1ccccc1CN1CCN(C(=S)Nc2cc(C)cc(C)n2)CC1 ?
10 to 20 µM

###

target: PHGDH (Homo sapiens (Human), UniProt O43175); assay: PHGDH inhibition, coupled assay with PSAT1/PSPH and diaphorase/resazurin readout; details: Table E9; mixture with PSAT1, PSPH; diaphorase/resazurin reporter
readout.kind: IC50

What reported IC50 corresponds to Cc1cc(C)nc(NC(=S)N2CCN(Cc3cccc(OC(F)(F)F)c3)CC2)c1 on PHGDH (Homo sapiens (Human), UniProt O43175)?
< 5 µM

What reported IC50 corresponds to COc1cccc(NC(=S)N2CCN(c3cccc(C(F)(F)F)n3)CC2)n1 on PHGDH (Homo sapiens (Human), UniProt O43175)?
5 to 10 µM

What reported IC50 corresponds to COc1ccc(N2CCN(C(=S)Nc3cc(C)ccn3)CC2)cc1 on PHGDH (Homo sapiens (Human), UniProt O43175)?
≥ 20 µM

***
What reported IC50 corresponds to Cc1cc(C)nc(NC(=S)N2CCN(c3ncc(Cl)cc3Cl)CC2)c1 on PHGDH (Homo sapiens (Human), UniProt O43175)?
5 to 10 µM

###

target: PHGDH (Homo sapiens (Human), UniProt O43175); test: PHGDH inhibition, coupled assay with PSAT1/PSPH and diaphorase/resazurin readout; details: Table E9; mixture with PSAT1, PSPH; diaphorase/resazurin reporter
readout.kind: IC50

Consider the worked cases shown below.
What does the record list as IC50 for Cc1cc(C)nc(NC(=S)N2CCN(Cc3ccc(Br)cc3)CC2)c1 ?
10 to 20 µM

What does the record list as IC50 for Cc1cc(C)nc(NC(=S)N2CCN(c3cccc(Cl)c3Cl)CC2)c1 ?
5 to 10 µM

What does the record list as IC50 for Cc1cc(C)nc(NC(=S)N2CCN(Cc3ccc(C(F)(F)F)cc3)C(C(=O)O)C2)c1 (stereo not drawn) ?
5 to 10 µM

What does the record list as IC50 for Cc1cc(C)nc(NC(=S)N2CCN(c3cncc4ccccc34)CC2)c1 ?
10 to 20 µM

What does the record list as IC50 for Cc1cc2nc(NC(=S)N3CCN(c4cccc(C(F)(F)F)c4)CC3)[nH]c2cc1C [Compound 244] ?
< 5 µM

***
What does the record list as IC50 for Cc1cc(C)nc(NC(=S)N2CCN(CC3CC3)CC2)c1 ?
≥ 20 µM

What does the record list as IC50 for Cc1cc(C)nc(NC(=S)N2CCCC(Nc3ccc(C(F)(F)F)cc3)C2)c1 (stereo not drawn) ?
< 5 µM

###

Below: a set of entries, each annotated with reported pIC50.
target: PHGDH (Homo sapiens (Human), UniProt O43175); experiment: PHGDH inhibition, coupled assay with PSAT1/PSPH and diaphorase/resazurin readout; details: Table E9; mixture with PSAT1, PSPH; diaphorase/resazurin reporter
pIC50: −log10 of the molar value.

Consider the worked cases shown below.
What reported pIC50 corresponds to FC(F)(F)c1cccc(N2CCN(C(=S)Nc3nc4ccccc4[nH]3)CC2)c1 on PHGDH (Homo sapiens (Human), UniProt O43175)?
> 5.30

What reported pIC50 corresponds to Cc1ccnc(NC(=S)NC2CN(c3cccc(C(F)(F)F)c3)C2)c1 on PHGDH (Homo sapiens (Human), UniProt O43175)?
≤ 4.70

What reported pIC50 corresponds to Cc1cc(C)nc(NC(=S)N2CCN(c3ccc4ccccc4c3)CC2)c1 on PHGDH (Homo sapiens (Human), UniProt O43175)?
5.00 to 5.30

What reported pIC50 corresponds to Cc1cc(C)nc(NC(=S)N2CCN(c3ncccc3C(F)(F)F)CC2)c1 on PHGDH (Homo sapiens (Human), UniProt O43175)?
4.70 to 5.00

***
What reported pIC50 corresponds to Cc1cc(C)nc(NC(=S)N2CCN(c3ncnc4sccc34)CC2)c1 on PHGDH (Homo sapiens (Human), UniProt O43175)?
≤ 4.70

What reported pIC50 corresponds to CCOC(=O)N1CCN(C(=S)Nc2cc(C)cc(C)n2)CC1 on PHGDH (Homo sapiens (Human), UniProt O43175)?
≤ 4.70

What reported pIC50 corresponds to Cc1cccc(CN2CCN(C(=S)Nc3cc(C)cc(C)n3)CC2)c1 on PHGDH (Homo sapiens (Human), UniProt O43175)?
> 5.30

What reported pIC50 corresponds to FC(F)(F)c1cccc(N2CCN(C(=S)Nc3ncnc4ccccc34)CC2)c1 on PHGDH (Homo sapiens (Human), UniProt O43175)?
5.00 to 5.30

What reported pIC50 corresponds to COc1cccc(NC(=S)N2CCN(c3ccc4ccccc4n3)CC2)n1 on PHGDH (Homo sapiens (Human), UniProt O43175)?
≤ 4.70

###

Below: a set of entries, each annotated with reported pIC50.
molecular target: PHGDH (Homo sapiens (Human), UniProt O43175); assay: PHGDH inhibition, coupled assay with PSAT1/PSPH and diaphorase/resazurin readout; conditions: Table E9; mixture with PSAT1, PSPH; diaphorase/resazurin reporter
pIC50: −log10 of the molar value.

Consider the worked cases shown below.
What does the record list as pIC50 for Cc1cc(C)nc(NC(=S)N2CCN(c3ccc(F)cc3F)CC2)c1 [Compound 90] ?
5.00 to 5.30

What does the record list as pIC50 for COc1ccnc(NC(=S)N2CCN(c3ncc(C(F)(F)F)cc3Cl)CC2)c1 [Compound 185] ?
5.00 to 5.30

What does the record list as pIC50 for Cc1cc(C)nc(NC(=S)N2CCN(c3cc(C#N)cc(C#N)c3)CC2)c1 [Compound 205] ?
≤ 4.70

Here is the next item to consider.
What does the record list as pIC50 for Cc1cc(C)nc(NC(=S)N2CCN(c3cc(C(F)(F)F)nc4ccc(C(F)(F)F)cc34)CC2)c1 [Compound 158] ?
5.00 to 5.30

###

biological target: PHGDH (Homo sapiens (Human), UniProt O43175); assay: PHGDH inhibition, coupled assay with PSAT1/PSPH and diaphorase/resazurin readout; details: Table E9; mixture with PSAT1, PSPH; diaphorase/resazurin reporter
Below: a set of entries, each annotated with reported IC50.

What does the record list as IC50 for Cc1ccnc(NC(=S)N2CC3CN(c4ncc(C(F)(F)F)cc4Cl)CC3C2)c1 (stereo not drawn) [Compound 227] ?
10 to 20 µM

***
What does the record list as IC50 for Cc1cc(C)nc(NC(=S)N2CCN(c3cc(C(F)(F)F)nc(C)n3)CC2)c1 [Compound 153] ?
10 to 20 µM

What does the record list as IC50 for Cc1cc(C)nc(NC(=S)N2CCN(c3ccc4ccccc4n3)CC2)c1 [Compound 85] ?
10 to 20 µM

What does the record list as IC50 for COc1ccnc(NC(=S)N2CCN(c3ccccc3C(F)(F)F)CC2)c1 [Compound 183] ?
5 to 10 µM

What does the record list as IC50 for Cc1cc(C)nc(NC(=S)N2CCN(C3=Nc4ccccc4Oc4ccccc43)CC2)c1 [Compound 154] ?
≥ 20 µM

What does the record list as IC50 for Cc1ccnc(NC(=S)N2CCN(c3ccc(N)cc3)CC2)c1 [Compound 17] ?
≥ 20 µM

What does the record list as IC50 for COc1cccc(NC(=S)N2CCN(c3ccc(C(F)(F)F)cc3[N+](=O)[O-])CC2)n1 [Compound 192] ?
10 to 20 µM

###

biological target: PHGDH (Homo sapiens (Human), UniProt O43175); assay: PHGDH inhibition, coupled assay with PSAT1/PSPH and diaphorase/resazurin readout; conditions: Table E9; mixture with PSAT1, PSPH; diaphorase/resazurin reporter
pIC50: −log10 of the molar value.
Below: a set of entries, each annotated with reported pIC50.

Consider the worked cases shown below.
What does the record list as pIC50 for Cc1cc(C)nc(Nc2nnc(N3CCN(c4cccc(C(F)(F)F)c4)CC3)s2)c1 ?
≤ 4.70

What does the record list as pIC50 for COc1ccc2nc(NC(=S)N3CCN(c4cccc(C(F)(F)F)c4)CC3)[nH]c2c1 [Compound 240] ?
≤ 4.70

What does the record list as pIC50 for Cc1ccnc(NC(=S)N2CCN(c3cccc(C(F)(F)F)c3)C[C@@H]2C)c1 ?
4.70 to 5.00

What does the record list as pIC50 for Cc1cc(C)nc(NC(=S)N2CCN(c3cccc4nccn34)CC2)c1 ?
≤ 4.70

***
What does the record list as pIC50 for Cc1cc(C)nc(NC(=S)N2CCN(c3cnccn3)CC2)c1 ?
≤ 4.70
